# SYSTEM: T1, b-PD-1 monomer (human PD-1) (human, UniProt Q15116 25-167, limits assumed, biotinylated (b-PD-1; detected with streptavidin), site not stated)
# T1 construct: The antigen used for the avid KD is not described separately; also called antigen
# T1 sequence (Q15116 25-167 limits assumed): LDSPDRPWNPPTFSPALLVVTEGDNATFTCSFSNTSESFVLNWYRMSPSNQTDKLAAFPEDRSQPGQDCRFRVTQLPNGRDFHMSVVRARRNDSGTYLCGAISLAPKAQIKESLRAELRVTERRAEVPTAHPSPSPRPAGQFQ
# MEASUREMENT_NOTES: MSD solution equilibrium titration, avid KD
ENDPOINT_LABEL: pKd
FYI, pKd means -log10 of a concentration in mol per litre.

>  <BINDER>
xd-16 C, IgG1 format expressed in yeast (antibody, V domains shown, Tested as IgG1 expressed in yeast; also called Antibody C) VH: QVQLVQSGAEVKKPGSSVKVSCKASGGTFSSTAISWVRQAPGQGLEWMGGIWPSFGTASYAQKFRGRVTITADESTSTAYMELSSLRSEDTAVYYCARAEYSSTGTFDYWGQGTLVTVSS VL: DIQMTQSPSSVSASVGDRVTITCRASQGISSWLAWYQQKPGKAPKLLISAASSLQSGVPSRFSGSGSGTDFTLTISSLQPEDFATYYCQQANHLPFTFGGGTKVEIK

>  <QUANTITATIVE_RESULT>
11.60

$$$$

Shift focus to the following entry.
If you can, please state the reported pKd value of xd-16 D, IgG1 format expressed in yeast (antibody, V domains shown, Tested as IgG1 expressed in yeast; also called Antibody D) VH: QVQLVQSGAEVKKPGSSVKVSCKASGGTFSSTAISWVRQAPGQGLEWMGGIWPSFDTANYAQKFRGRVTITADESTSTAYMELSSLRSEDTAVYYCARAEYSSTGTFDYWGQGTLVTVSS VL: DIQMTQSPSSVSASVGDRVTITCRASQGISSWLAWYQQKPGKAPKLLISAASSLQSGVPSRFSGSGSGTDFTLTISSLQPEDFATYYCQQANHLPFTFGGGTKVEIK . 11.89
